Below, each of the compounds is paired with its reported log10(TGI) value.
System: SNB-75 CNS
assay.info: NCI tumour cell line growth inhibition, 48 h
measurement.kind: log10(TGI) (log10 of the value in µM)

compound="CCN1CCC(O)(/C=C/c2ccc(Cl)cc2)C(C(=O)/C=C/c2ccc(Cl)cc2)C1 (stereo not given)" measured_on="SNB-75 CNS" measurement_kind=log10(TGI) quantitative_result=1.87
compound="CCN1C(=O)N(CC)C2C1NN=c1s/c(=C\\c3cnc(C)n3C)c(=O)n12 (stereo not given)" measured_on="SNB-75 CNS" measurement_kind=log10(TGI) quantitative_result=0.54
compound=S=c1sscc1N1CCSc2ssc(=S)c21 measured_on="SNB-75 CNS" measurement_kind=log10(TGI) quantitative_result=1.64
compound=O=c1ccc2nc3ccc(O)cc3oc-2c1 measured_on="SNB-75 CNS" measurement_kind=log10(TGI) quantitative_result=1.34
compound=COc1ccc(-c2c(C#N)cnc(N)c2-c2nc3cc(C)c(C)cc3[nH]2)cc1 measured_on="SNB-75 CNS" measurement_kind=log10(TGI) quantitative_result=0.91
compound="CCCCCCCCCCCCCCCC(N)c1ccccc1 (stereo not given)" measured_on="SNB-75 CNS" measurement_kind=log10(TGI) quantitative_result=0.46
compound=N#C/C=C\c1ccc(-c2cc(C(F)(F)F)cc(C(F)(F)F)c2)o1 measured_on="SNB-75 CNS" measurement_kind=log10(TGI) quantitative_result=1.60
compound=CN1C(=O)C(C)(C)Oc2c(-c3cn(C)c(=O)c4[nH]ccc34)cc(S(C)(=O)=O)cc21 measured_on="SNB-75 CNS" measurement_kind=log10(TGI) quantitative_result=0.17

====

Listed next: entries and their corresponding TGI.
Test system: A549 NSCLC
assay.info: NCI tumour cell line growth inhibition, 48 h
measurement.kind: TGI

compound="CC(=O)Nc1ccc(OCC(O)CO)cc1 (configuration not stated)" measured_on="A549 NSCLC" result="> 100 µM"
compound=COc1ccc(S(=O)(=O)N/N=C/CN2C(=O)c3ccccc3C2=O)cc1 measured_on="A549 NSCLC" result="> 100 µM"
compound=CN(C)c1ccc(/C=c2\sc3nnc(Cc4ccccc4)n3c2=O)cc1 measured_on="A549 NSCLC" result="> 100 µM"
compound=N#CCCn1c(CCC(=O)Nc2ccc(Cl)cc2Cl)n[nH]c1=S measured_on="A549 NSCLC" result="> 100 µM"
compound=NC(N)=NC(N)=NCc1ccco1 measured_on="A549 NSCLC" result="> 1250 µM"
compound=COc1ccc(/C=C/C(=O)/C=C(/C=C/c2ccc(OC)c(OC)c2OC)OB(F)F)c(OC)c1OC measured_on="A549 NSCLC" result="> 100 µM"
compound="C=C1CC(CC(=O)C(C)CC2CC(=C)C(=O)O2)OC1=O (configuration not stated)" measured_on="A549 NSCLC" result="> 100 µM"
compound=CN1CCN(Cc2ccc(NC(=O)c3[nH]ncc3Nc3cc(OC4CCCC4)ncn3)cc2)CC1 measured_on="A549 NSCLC" result="10.5 µM"
compound=CCOC(=O)C(C(=O)OCC)C(NC(=O)Nc1cc(C(F)(F)F)ccc1OC)(C(F)(F)F)C(F)(F)F measured_on="A549 NSCLC" result="> 100 µM"
compound=CCCC(=O)OC1=C(c2ccccc2)Sc2ccccc2-n2cccc21 measured_on="A549 NSCLC" result="> 10 µM"
compound="CC(=O)OC1(C#N)CC2OC1C1NC21 (configuration not stated)" measured_on="A549 NSCLC" result="> 100 µM"
compound=OCC1(CNc2cc(Cl)ncn2)CCC1 measured_on="A549 NSCLC" result="> 100 µM"
compound="CC(C)CC1NC(=O)C(C(C)C)NC(=O)CC(C)COC(=O)C(CC(C)C)N(C)C(=O)C(C(C)C)NC(=O)C(C(C)C)OC1=O (configuration not stated)" measured_on="A549 NSCLC" result="> 50 µM"
compound=CCOC(=O)c1c(CN2CCOCC2)n(Cc2ccccc2)c2c1cc(O)c1nc(C)c(C)nc12 measured_on="A549 NSCLC" result="> 100 µM"
compound=Cc1c(C(=O)Nc2ccc(Cl)cc2)nc(N)nc1-c1cccc(Cl)c1 measured_on="A549 NSCLC" result="> 100 µM"
compound=NC(=O)N=Nc1c2ccccc2n2[nH]ccc12 measured_on="A549 NSCLC" result="> 100 µM"
compound=COc1cccc(-c2cc(=O)c3cc(N4CCCC4)ccc3[nH]2)c1 measured_on="A549 NSCLC" result="> 10 µM"
compound="CNCC1CCn2c(c(C3=C(c4cn(C)c5ccccc45)C(=O)NC3=O)c3ccccc32)C1 (configuration not stated)" measured_on="A549 NSCLC" result="10.6 µM"
compound="CC(=O)Nc1ccccc1S(=O)c1ccccc1 (configuration not stated)" measured_on="A549 NSCLC" result="> 100 µM"
compound=CN1C(=O)C(C)(C)Oc2c(-c3cn(C)c(=O)c4[nH]ccc34)cc(S(C)(=O)=O)cc21 measured_on="A549 NSCLC" result="> 100 µM"
compound=CCN(CC)c1ccc2cc(-c3csc(-c4ccc(N(C)C)cc4)n3)c(=O)oc2c1 measured_on="A549 NSCLC" result="> 100 µM"
compound=Cc1ccc(S(=O)(=O)NC(=O)NCC(=O)O)cc1 measured_on="A549 NSCLC" result="> 100 µM"
